Data origin: PubChem BioAssay (NCI)

Tested on: HOP-92 NSCLC
Measurement protocol: NCI-60 one-dose screen, 48 h
Assay setup: 10 µM unless noted
The panel holds about 83,000 compounds, 20% with a hit somewhere; the sample as a whole holds those more often. The source made the active and inactive calls. The calls were made as follows: active = growth percent below 10; inactive = the rest.
# output must be one of true (1) = active, false (0) = inactive

Which outcome did this test record for the compound C/C=C(\C)C(=O)N[C@H]1CC[C@]2(C)C3CC[C@@]4(C)C(CC[C@@H]4C(C)N(C)C)C3CCC2[C@H]1OC(C)=O (stereo partly drawn) ?
true (1)

Repeat for the following compound: "CCOc1ccccc1NC(=O)c1cc2ccccc2cc1O"
true (1)

Now try "O=C(c1ccc(Nc2nccc(NCCCNc3ccnc4cc(Cl)ccc34)n2)cc1)N1CCCCC1" .
false (0)

Another: "Nc1nc2c(s1)CCc1cn(S(=O)(=O)c3ccccc3)cc1-2"
false (0)

Try the compound "CN1CCN(CCNC(=O)c2cccc(CN3c4cccc5c4C(=Cc4cccnc43)N(C)C5=O)c2)CC1"
false (0)

Field entry: "CC(C)(C)c1cc(C(C)(C)c2ccccc2)cc(Cc2cc(C(C)(C)c3ccccc3)cc(C(C)(C)C)c2O)c1O"
false (0)

What about COc1cccc(C2C(C#N)=C(N)Oc3cc(OCCCCCC[P+](c4ccccc4)(c4ccccc4)c4ccccc4)ccc32)c1 (stereo not drawn) ?
true (1)

Now consider CC[C@]1(O)CC2CN(CCc3c([nH]c4ccccc34)C(C(=O)OC)(c3cc4c(cc3OC)N(C=O)[C@H]3[C@@](O)(C(=O)OC)[C@H](OC(C)=O)[C@]5(CC)[C@@H]6C[C@@H]6CN6CC[C@]43[C@@H]65)C2)C1 (stereo partly drawn) and answer again.
true (1)
